Data credit: patent US20250121082A1

- tested system: T1, Human CD228 protein (human, UniProt P08582 20-708, limits assumed)
- T1 construct: Recombinant protein made in CHO cells, purified over a Ni column; The printed entry begins with the leader (MRGPSG...) and ends with ten His; also called hCD228; CD228-His protein
- T1 sequence: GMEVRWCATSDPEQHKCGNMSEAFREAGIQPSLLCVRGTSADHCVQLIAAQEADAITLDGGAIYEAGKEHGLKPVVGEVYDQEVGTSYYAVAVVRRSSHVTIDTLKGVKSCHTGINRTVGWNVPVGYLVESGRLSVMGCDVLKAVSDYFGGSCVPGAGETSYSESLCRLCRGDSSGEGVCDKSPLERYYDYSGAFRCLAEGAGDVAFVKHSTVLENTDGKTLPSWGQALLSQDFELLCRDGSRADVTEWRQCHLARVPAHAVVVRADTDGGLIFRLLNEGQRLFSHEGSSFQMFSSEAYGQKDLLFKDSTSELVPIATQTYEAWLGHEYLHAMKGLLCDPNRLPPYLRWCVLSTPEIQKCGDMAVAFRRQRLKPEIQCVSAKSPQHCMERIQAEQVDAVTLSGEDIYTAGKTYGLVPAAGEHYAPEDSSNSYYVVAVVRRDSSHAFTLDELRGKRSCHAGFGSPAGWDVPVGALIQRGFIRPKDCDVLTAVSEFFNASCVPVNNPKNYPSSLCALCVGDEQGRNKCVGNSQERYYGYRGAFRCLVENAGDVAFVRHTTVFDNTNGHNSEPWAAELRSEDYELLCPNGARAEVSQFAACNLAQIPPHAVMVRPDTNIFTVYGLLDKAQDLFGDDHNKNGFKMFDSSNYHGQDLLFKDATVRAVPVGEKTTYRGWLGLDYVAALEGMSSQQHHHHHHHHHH
- assay text: Octet competition on His-chip CD228; competitor: BA352
- Procedure: CD228 proteins were immobilized on His chips at 10 μg/mL with a threshold of 0.5 nm. The first CD228 antibody (30 μg/mL) was immobilized, and the competitive binding of the second CD228 antibody (30 μg/mL) was analyzed. The Octet 8K system was used to analyze the response of antibody 2 and to determine whether antibody 1 and antibody 2 were in competition. The final competition analysis was conducted using the following calculation method: 1—response value/blank value.
value type: competition (1-response value/blank value)

1) CA149 (antibody, human IgG1, kappa, V domains shown, Intact IgG1; also called CA149 antibody) VH: EVQLVESGGGVVQPGRSLRLSCAASGFTFSSYAMHWVRQAPGKGLEWVAVISFDGSNKYYTDSVKGRFTISRDNSKNTLYLQMNSLRAEDTAVYYCAREVPYYYGSGPFDYWGQGTLVTVSS VL: EIVLTQSPATLSVSPGERATLSCRASQSVSSNLAWYQQKPGQAPRHLIDGASSRASGIPDRFSGSGSGTDFTLTISRLEPEDFAVYYCQQYGSSPPFTFGPGTKVDIKR: -12%
